- system tested: T1, Human IL-33 (Axxora/Adipogen AG-40B-0038) (human, UniProt O95760 112-270, limits assumed)
- T1 sequence (looked up): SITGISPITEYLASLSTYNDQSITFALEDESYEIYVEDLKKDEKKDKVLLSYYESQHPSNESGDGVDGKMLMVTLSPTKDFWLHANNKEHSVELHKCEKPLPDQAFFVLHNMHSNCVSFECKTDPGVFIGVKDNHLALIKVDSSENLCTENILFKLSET
- test: cell-based or functional assay
measure: Huvec IL-6 production, maximum inhibition

Would you mind telling me what Huvec IL-6 production, maximum inhibition value was observed for IL330388 IgG1 (antibody, V domains shown, IgG1; also called IL3300388) VH: EVQLLESGGGLVQPGGSLRLSCAASGFTFSSYAMSWVRQAPGKGLEWVSASTPWQGSTYYADSVKGRFTISRDNSKNTLYLQMNSLRAEDTAVYYCVRWYWGWIDSWGRGTLVTVSS VL: SYVLTQPPSVSVSPGQTARITCSGDALPKQYAHWYQQKPGQAPALVIYKDTERPSGIPERFSGSSSGTTVTLTISGVQAEDEADYYCMSSDPSGASRVFGGGTKVTVL ?
~70%

Would you mind telling me what Huvec IL-6 production, maximum inhibition value was observed for IL330398 IgG1 (antibody, V domains shown) VH: EVQLLESGGGLVQPGGSLRLSCAASGFTFSSYAMSWVRQAPGKGLEWVSASTPWQGSTYYADSVKGRFTISRDNSKNTLYLQMNSLRAEDTAVYYCVRWYWGWIDSWGRGTLVTVSS VL: SYVLTQPPSVSVSPGQTARITCSGDALPKQYAHWYQQKPGQAPALVIYKDTERPSGIPERFSGSSSGTTVTLTISGVQAEDEADYYCLSSDASGASRVFGGGTKVTVL ?
~70%

Would you mind telling me what Huvec IL-6 production, maximum inhibition value was observed for H338L293 IgG1 (as in Table 13) (antibody, V domains shown, IgG1) VH: EVQLLESGGGLVQPGGSLRLSCAASGFTFSSYAMSWVRQAPGKGLEWVSAISPREGWQYYADSVKGRFTISRDNSKNTLYLQMNSLRAEDTAVYYCVRVVAGYFDSWGRGTLVTVSS VL: SYVLTQPPSVSVSPGQTARITCSGDALPKQYAHWYQQKPGQAPALVIYKDTERPSGIPERFSGSSSGTTVTLTISGVQAEDEADYYCMSSDPSGASRVFGGGTKVTVL ?
~70%
